TARGET DESC: V1a (Homo sapiens, UniProt P37288)
Sequence (P37288 whole entry): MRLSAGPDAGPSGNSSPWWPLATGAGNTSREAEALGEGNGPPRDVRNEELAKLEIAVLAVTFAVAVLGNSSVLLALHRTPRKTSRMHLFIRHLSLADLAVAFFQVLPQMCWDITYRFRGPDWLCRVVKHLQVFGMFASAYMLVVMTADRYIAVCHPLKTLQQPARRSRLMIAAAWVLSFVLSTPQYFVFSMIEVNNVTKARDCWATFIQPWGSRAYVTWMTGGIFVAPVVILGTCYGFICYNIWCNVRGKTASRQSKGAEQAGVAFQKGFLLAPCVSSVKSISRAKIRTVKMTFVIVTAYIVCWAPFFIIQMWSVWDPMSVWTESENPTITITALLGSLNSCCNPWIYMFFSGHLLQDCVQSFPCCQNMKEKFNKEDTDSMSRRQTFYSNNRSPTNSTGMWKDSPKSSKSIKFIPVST
TEST DESCRIPTION: Human vasopression V1a receptor binding assay
TEST CONDITIONS: hV1a cell line (CHO); Table 18
pKi: −log10 of the molar value.
Recorded pKi split into classes LOW = under 8, MID = from 8 up to 9, HIGH = 9 and over

Incoming: Entry O=C(NCc1cccc(C(F)(F)F)c1)C(C(=O)N1CCN(C2CCCCC2)CC1)N1C(=O)[C@@H](N2C(=O)OC[C@@H]2c2ccccc2)[C@H]1/C=C/c1ccccc1 (mixture of isomers) belongs to which category?
Outgoing: LOW

Incoming: Another: O=C(NCc1cccc(C(F)(F)F)c1)[C@H](CCC(=O)N1CCN(CC2CCCCC2)CC1)N1C(=O)[C@@H](N2C(=O)OC[C@@H]2c2ccccc2)[C@H]1/C=C/c1ccccc1
Outgoing: HIGH

Incoming: Would you mind doing O=C(N[C@H]1CCc2ccccc21)[C@H](CCC(=O)N1CCN(C2CCCCC2)CC1)N1C(=O)[C@@H](N2C(=O)OC[C@@H]2c2ccccc2)[C@H]1/C=C/c1ccccc1 [Example 221R] as well?
Outgoing: MID

Incoming: Follow-up item: CC(C)N1CCN(C(=O)CC[C@@H](C(=O)NCc2cccc(C(F)(F)F)c2)N2C(=O)[C@@H](N3C(=O)OC[C@@H]3c3ccccc3)[C@H]2/C(Cl)=C/c2ccccc2)CC1
Outgoing: MID

Incoming: Same for O=C(N[C@@H]1CCc2ccccc21)[C@H](CCC(=O)N1CCN(C2CCCCC2)CC1)N1C(=O)[C@@H](N2C(=O)OC[C@@H]2c2ccccc2)[C@H]1/C=C/c1ccccc1 [Example 221S]
Outgoing: MID

Measured values drawn from patent US9597314B2 for this set.
